Molecular target: hM1 mAChR (Homo sapiens, UniProt P11229)
Construct: expressed in transfected cells
Sequence (P11229 1-460): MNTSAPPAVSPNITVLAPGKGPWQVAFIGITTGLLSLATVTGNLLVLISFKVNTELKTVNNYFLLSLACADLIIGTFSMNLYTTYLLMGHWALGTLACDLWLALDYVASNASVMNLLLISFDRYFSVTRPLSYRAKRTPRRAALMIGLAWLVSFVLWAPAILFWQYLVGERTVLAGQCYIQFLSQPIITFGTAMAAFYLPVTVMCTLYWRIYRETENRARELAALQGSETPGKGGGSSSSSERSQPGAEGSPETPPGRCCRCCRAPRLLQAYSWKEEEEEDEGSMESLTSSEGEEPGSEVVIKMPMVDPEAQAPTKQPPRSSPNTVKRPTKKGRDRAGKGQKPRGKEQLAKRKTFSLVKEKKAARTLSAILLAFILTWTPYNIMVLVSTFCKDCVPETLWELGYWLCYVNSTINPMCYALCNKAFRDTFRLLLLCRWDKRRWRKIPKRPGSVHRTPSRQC
Test: Whole-cell [3H]NMS equilibrium competition radioligand binding
Settings: [3H]NMS binding; antilog, in parentheses
readout-kind: α (binding cooperativity with ACh)

Query :: // returns reported α (binding cooperativity with ACh) for input CN(C)C(=O)Cn1ccc(-c2ccccc2OCc2ccc(-c3cnn(C)c3)cc2)cc1=O [Compound 13c]
Result :: 72

P: Cn1cc(-c2ccc(COc3ccccc3-c3cc(=O)n(C4CCCCC4O)cn3)cc2)cn1 (stereo not drawn)
Q: Cn1cc(-c2ccc(COc3ccsc3-c3ccn(C4CCCCC4O)c(=O)c3)cc2)cn1 (stereo not drawn)
Query :: Field: lower α (binding cooperativity with ACh) | Options: P / Q State your choice using its label.
Result :: P
(P: 240, Q: 380)

###

Target: hM1 mAChR (Homo sapiens, UniProt P11229)
Construct: expressed in transfected cells
Sequence (P11229 1-460): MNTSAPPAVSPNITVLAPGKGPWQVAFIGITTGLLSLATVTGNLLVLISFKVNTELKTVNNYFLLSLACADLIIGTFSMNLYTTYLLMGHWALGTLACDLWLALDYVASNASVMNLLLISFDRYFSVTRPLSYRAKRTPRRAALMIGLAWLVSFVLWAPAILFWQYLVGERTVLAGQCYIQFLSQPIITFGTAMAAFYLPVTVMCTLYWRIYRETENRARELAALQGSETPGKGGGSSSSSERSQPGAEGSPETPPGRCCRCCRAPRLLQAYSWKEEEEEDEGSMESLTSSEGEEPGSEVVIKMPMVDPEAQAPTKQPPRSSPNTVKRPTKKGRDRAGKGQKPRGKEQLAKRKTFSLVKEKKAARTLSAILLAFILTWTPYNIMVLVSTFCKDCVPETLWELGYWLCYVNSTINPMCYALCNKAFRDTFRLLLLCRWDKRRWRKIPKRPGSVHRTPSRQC
Assay: IP1 accumulation assay (ACh concentration-response curves in absence or presence of modulator)
Type: cell-based
Details: 1 μM modulator; FlpIn CHO hM1 cells; mean ± SEM, 3 experiments; read-out: Δbaseline [1 μM]: change in basal response in presence of M1 PAM compared to control curve
readout-kind: activation at 1 µM (%)

Query :: // fetch hM1 mAChR (Homo sapiens, UniProt P11229) activation at 1 µM for Cn1cc(-c2ccc(COc3ccccc3-c3ccn(C4CCCCC4=O)c(=O)c3)cc2)cn1 (centres unmarked) [Compound 13d]
Result :: 4.8

Query :: // fetch hM1 mAChR (Homo sapiens, UniProt P11229) activation at 1 µM for Cc1ccc(OCc2ccc(-c3cnn(C)c3)cc2)c(-c2ccn(C3CCCCC3O)c(=O)c2)c1 (centres unmarked) [Compound 7a]
Result :: 0.47

P: O=c1cc(-c2ccccc2OCc2ccc(-n3cccn3)cc2)ncn1C1CCCCC1O (centres unmarked) [Compound 27c]
Q: Cn1cc(-c2ccc(COc3ccccc3-c3ccn(C4CCCCC4O)c(=O)c3)cc2)cn1 (centres unmarked) [Compound 1]
Query :: Field: lower activation at 1 µM | Options: P / Q State your choice using its label.
Result :: Q

I: Cn1cc(-c2ccc(COc3ccsc3-c3cc(=O)n(C4CCCCC4O)cn3)cc2)cn1 (centres unmarked) [Compound 26b]
II: COc1cccc(OCc2ccc(-c3cnn(C)c3)cc2)c1-c1cc(=O)n([C@H]2CCCC[C@@H]2O)cn1 (racemic) [Compound 26c]
III: COC1CCCCC1n1ccc(-c2ccccc2OCc2ccc(-c3cnn(C)c3)cc2)cc1=O (centres unmarked) [Compound 14]
Query :: List by increasing activation at 1 µM. Write out the labels following the order that was asked for.
Result :: II, III, I

###

Biological target: hM1 mAChR (Homo sapiens, UniProt P11229)
Construct: expressed in transfected cells
Test: IP1 accumulation assay (ACh concentration-response curves in absence or presence of modulator)
Format: cell-based
Settings: IP1 accumulation; antilog, in parentheses
readout-kind: τB (intrinsic efficacy of the modulator)

Reference set, count: 2
Query :: // fetch hM1 mAChR (Homo sapiens, UniProt P11229) τB (intrinsic efficacy of the modulator) for COc1ccc(Cn2cc(C(=O)O)c(=O)c3ccccc32)cc1 [BQCA, reference compound]
Result :: 6

Query :: // fetch hM1 mAChR (Homo sapiens, UniProt P11229) τB (intrinsic efficacy of the modulator) for CN(C)C(=O)Cn1ccc(-c2ccccc2OCc2ccc(-c3cnn(C)c3)cc2)cc1=O [Compound 13c]
Result :: 3

P: Cn1cc(-c2ccc(COc3ccccc3-c3cc(=O)n(C4CCCCC4O)cn3)cc2)cn1 (stereo not shown) [Compound 2]
Q: Cn1cc(-c2ccc(COc3ncccc3-c3cc(=O)n(C4CCCCC4O)cn3)cc2)cn1 (stereo not shown) [Compound 26a]
Query :: Endpoint returns the identifier whose τB (intrinsic efficacy of the modulator) is numerically larger, either P or Q . State your choice using its label.
Result :: P

###

Biological target: M1 mAChR (Homo sapiens, UniProt P11229)
Construct: expressed in transfected cells; host or cells: parental FlpIn CHO cells (transient, PEI)
Test: β-arrestin 2 recruitment assay (BRET)
Assay type: cell-based
Conditions: operational model
Description: The compounds were then fully characterised in two functional assays (Figure 2C and D); the Gq-coupled IP1 accumulation assay (Figure S2), which was used for the initial screening of the compounds, and a β-arrestin 2 recruitment assay (Figure S3). […] Functional interaction studies between ACh and allosteric modulators in IP1 and β-arrestin 2 recruitment assays were analysed according to a three-parameter logistic equation or the following operational model of allosterism and agonism [Eq. (3)].[16] […]
readout-kind: log τB (logarithm of intrinsic efficacy of the modulator)

Query :: // returns reported log τB (logarithm of intrinsic efficacy of the modulator) for input Cn1cc(-c2ccc(COc3ncccc3-c3cc(=O)n(C4CCCCC4O)cn3)cc2)cn1 (stereo not shown) [Compound 26a]
Result :: 0.28

1: Cn1cc(-c2ccc(COc3ncccc3-c3ccn(C4CCCCC4O)c(=O)c3)cc2)cn1 (stereo not shown)
2: Cn1cc(-c2ccc(COc3ccccc3-c3cc(=O)n(C4CCCCC4O)cn3)cc2)cn1 (stereo not shown)
Query :: Endpoint returns the identifier whose log τB (logarithm of intrinsic efficacy of the modulator) is numerically larger, either 1 or 2 . State your choice using its label.
Result :: 2

###

Target: hM1 mAChR (Homo sapiens, UniProt P11229)
Construct: expressed in transfected cells
Assay: IP1 accumulation assay (ACh concentration-response curves in absence or presence of modulator)
Type: cell-based
Details: IP1 accumulation; antilog, in parentheses
readout-kind: αβ (functional cooperativity with ACh)

Query :: // returns reported αβ (functional cooperativity with ACh) for input Cn1cc(-c2ccc(COc3ccccc3-c3cc(=O)n(C4CCCCC4O)cn3)cc2)cn1 (centres unmarked)
Result :: 363

Query :: // returns reported αβ (functional cooperativity with ACh) for input O=c1cc(-c2ccccc2OCc2ccc(-n3cccn3)nc2)ncn1C1CCCCC1O (centres unmarked) [Compound 27b]
Result :: 112

Query :: // returns reported αβ (functional cooperativity with ACh) for input CN(C)C(=O)Cn1ccc(-c2ccccc2OCc2ccc(-c3cnn(C)c3)cc2)cc1=O [Compound 13c]
Result :: 118

Query :: // returns reported αβ (functional cooperativity with ACh) for input COc1ccc(Cn2cc(C(=O)O)c(=O)c3ccccc32)cc1 [BQCA, reference compound]
Result :: 389

A: Cn1cc(-c2ccc(COc3ccccc3-c3ccn(C4CCCCC4=O)c(=O)c3)cc2)cn1 (centres unmarked) [Compound 13d]
B: Cn1cc(-c2ccc(COc3ncccc3-c3ccn(C4CCCCC4O)c(=O)c3)cc2)cn1 (centres unmarked)
C: Cn1cc(-c2ccc(COc3ccccc3-c3ccn(C4CCCCC4O)c(=O)c3)cc2)cn1 (centres unmarked)
D: Cn1cc(-c2ccc(COc3ccsc3-c3ccn(C4CCCCC4O)c(=O)c3)cc2)cn1 (centres unmarked)
Query :: List by increasing αβ (functional cooperativity with ACh). Write out the labels following the order that was asked for.
Result :: A, C, B, D
